Where do the numbers come from? From patent EP0054756A2.

molecular target: Dihydrofolate reductase (Escherichia coli, UniProt P0ABQ4); assay: Dihydrofolate reductase inhibition; type: biochemical, E. coli
Structures can show the parent of a compound that is named as a salt.
assayEndpoint: log10 of IC50 (log10 of the value in nM)
Could you please treat all values as log10 of IC50 in nM?

So, COc1cc(Cc2cnc(N)nc2N)cc(OCCCOc2ccccc2)c1OC [compound 5] ? Its log10 of IC50 was 1.57

So, COc1cc(Cc2cnc(N)nc2N)cc(OCCCCc2ccccc2)c1OC [compound 3] ? Its log10 of IC50 was 0.36

So, COc1cccc(CCCOc2cc(Cc3cnc(N)nc3N)cc(OC)c2OC)c1 [compound 2] ? Its log10 of IC50 was 1.76

So, COc1cc(Cc2cnc(N)nc2N)cc(OCCOCc2ccccc2)c1OC [compound 4] ? Its log10 of IC50 was 0.73

So, COc1cc(Cc2cnc(N)nc2N)cc(OCCSc2ccccc2)c1OC [Example 14] ? Its log10 of IC50 was 0.72

So, COc1cc(Cc2cnc(N)nc2N)cc(OCCSCc2ccccc2)c1OC [Example 15] ? Its log10 of IC50 was 0.30

So, COc1cc(Cc2cnc(N)nc2N)cc(OCCCc2ccccc2)c1OC [compound 1] ? Its log10 of IC50 was 0.68

So, COc1cc(Cc2cnc(N)nc2N)cc(OCCCCOc2ccccc2)c1OC [Example 10, hydrochloride] ? Its log10 of IC50 was 0.60
